# assayTarget: T1, Human trkC-Fc fusion protein (human, UniProt Q16288 32-429)
# T1 construct: Immobilised on CM5 chip for BIAcore; also called htrkC; not shown: Fc part not described
# experimentalDetails: BIAcore SPR, Fab over immobilised human trkC-Fc
# Procedure: Affinities of anti-trkC Fabs and monoclonal antibodies were determined using the BIAcore 3000™ surface plasmon resonance (SPR) system (BIAcore, INC, Piscaway N.J.). […] The concentrations of the Fab proteins are determined by ELISA and/or SDS-PAGE electrophoresis using a Fab of known concentration (as determined by amino acid analysis) as a standard. […] Equilibrium dissociation constant (KD) values are calculated as koff/kₒₙ. […]
resultType: koff (s⁻¹)
// return numeric value only (unit: s⁻¹, not printed)

Solved entries (count: 3):
{"columns": ["binder", "unitAbbrev", "koff"],
 "data": [
  ["Fab clone 129(T8)(H8xE10) (Fab, V domains shown) VH: QVQLVQSGAEVKKPGASVKVSCKASGYTFTSYRIHWVRQAPGQGLEWMGEIYPSNSRTNYNEKFKSRATMTGDKSTSTVYMELSSLRSEDTAVYYCARKYYYGNSRRSWYFDVWGQGTTVTVS VL: DIQMTQSPSSLSASVGDRVTITCRASESIDNYGISFLAWYQQKPGKAPKLLIYAASNRGSGVPSRFSGSGSGTDFTFTISSLQPEDIATYYCQQSKTVPRTFGQGTKLEIKR", "s⁻¹", 0.001],
  ["Fab clone 129(T8)(H8xE10)(10B) (Fab, V domains shown) VH: QVQLVQSGAEVKKPGASVKVSCKASGYTFTSYRIHWVRQAPGQGLEWMGEIYPSNSRTNYNEKFKSRVTMTRDTSTSTVYMELSSLRSEDTAVYYCARKYYYGNSRRSWYFDVWGQGTTVTVS VL: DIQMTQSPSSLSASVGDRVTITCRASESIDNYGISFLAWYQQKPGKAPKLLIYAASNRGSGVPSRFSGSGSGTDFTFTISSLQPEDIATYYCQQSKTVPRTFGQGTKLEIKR", "s⁻¹", 0.0008],
  ["Fab clone 129(T8)(E12) (Fab, V domains shown) VH: QVQLVQSGAEVKKPGASVKVSCKASGYTFTSYWLHWVRQAPGQGLEWMGEIYPSNSRTNYNEKFKSRATMTGDKSTSTVYMELSSLRSEDTAVYYCARKYYYGNSRRSWYFDVWGQGTTVTVS VL: DIQMTQSPSSLSASVGDRVTITCRASESVDSYGISFMNWYQQKPGKAPKLLIYAASNLGSGVPSRFSGSGSGTDFTFTISSLQPEDIATYYCQQSKTVPRTFGQGTKLEIKR", "s⁻¹", 0.0009]
]}

Just so you know, measured koff for Fab clone 129(C36) (Fab, V domains shown) VH: QVQLVQSGAEVKKPGASVKVSCKASGYTFTSYWMHWVRQAPGQGLEWMGEIYPSNGRTNYNEKFKSRVTMTLDKSTSTVYMQLSSLRSEDTAVYYCARKYYYGNSRRSWYFDVWGQGTTVTVS VL: DIQMTQSPSSLSASVGDRVTITCRASESVDNYGISFMNWYQQKPGKPPKLLIYAASNQGSGVPSRFSGSGSGTDFTFTISSLQPEDIATYYCQQSKAVPRTFGQGTKLEIKR came out at 0.002

Just so you know, measured koff for Fab clone 129(T34) (Fab, V domains shown) VH: QVQLVQSGAEVKKPGASVKVSCKASGYTFTSYWMHWVRQAPGQGLEWMGEIYPSNGRTNYNEKFKSRVTMTRDTSTSTVYMQLSSLRSEDTAVYYCARKYYYGNSRRSWYFDVWGQGTTVTVS VL: DIQMTQSPSSLSASVGDRVTITCRASESVDNYGISFMNWYQQKPGQPPKLLIYAASNQGSGVPSRFSGSGSGTDFTFTISSLQPEDIATYYCQQSKTVPRTFGQGTKLEIKR came out at 0.0012

Just so you know, measured koff for Fab clone 129(T6) (Fab, V domains shown) VH: QVQLVQSGAEVKKPGASVKVSCKASGYTFTSYWMHWVRQAPGQGLEWMGEIYPSNGRTNYNEKFKSRVTMTGDTSTSTVYMQLSSLRSEDTAVYYCARKYYYGNSKRSWYFDVWGQGTTVTVS VL: DIQMTQSPSSLSASVGDRVTITCRASESVDNYGISFMNWYQQKPGQAPKLLIYAASNQGSGVPSRFSGSGSGTDFTFTISSLQPEDIATYYCQQSKEVPRTFGQGTKLEIKR came out at 0.0034

Just so you know, measured koff for Fab clone 129(T8)(H8xE10)(9A) (Fab, V domains shown) VH: QVQLVQSGAEVKKPGASVKVSCKASGYTFTSYRIHWVRQAPGQGLEWMGEIYPSNSRTNYNEKFKSRATMTRDKSTSTVYMELSSLRSEDTAVYYCARKYYYGNSRRSWYFDVWGQGTTVTVS VL: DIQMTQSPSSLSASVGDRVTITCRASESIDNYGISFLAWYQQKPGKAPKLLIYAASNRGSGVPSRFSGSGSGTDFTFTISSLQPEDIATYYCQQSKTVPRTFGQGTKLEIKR came out at 0.0003

Just so you know, measured koff for Fab clone 129(C14) (Fab, V domains shown) VH: QVQLVQSGAEVKKPGASVKVSCKASGYTFTSYWMHWVRQAPGQGLEWMGEIYPSNGRTNYNEKFKSRVTMTRDKSTSTVYMHLSSLRSEDTAVYYCARKYYYGNSRRSWYFDVWGQGTTVTVS VL: DIQMTQSPSSLSASVGDRVTITCRASESVDNYGISFMNWYQQKPGQAPKLLIYAASNQGSGVPSRFSGSGSGTDFTFTISSLQPEDIATYYCQQSKEVPRTFGQGTKLEIKR came out at 0.0017

Just so you know, measured koff for Fab clone 129(T8)(H8xE10)(4B) (Fab, V domains shown) VH: QVQLVQSGAEVKKPGASVKVSCKASGYTFTSYRIHWVRQAPGQGLEWMGEIYPSNSRTNYNEKFKSRVTMTGDTSTSTVYMELSSLRSEDTAVYYCARKYYYGNSRRSWYFDVWGQGTTVTVS VL: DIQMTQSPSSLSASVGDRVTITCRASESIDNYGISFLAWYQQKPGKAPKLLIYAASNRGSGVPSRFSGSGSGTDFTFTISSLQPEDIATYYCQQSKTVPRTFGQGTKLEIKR came out at 0.002

Just so you know, measured koff for Fab clone 129(T8)(H9) (Fab, V domains shown) VH: QVQLVQSGAEVKKPGASVKVSCKASGYTFTSYWRHWVRQAPGQGLEWMGEIYPSNGRTNYNEKFKSRATMTGDKSTSTVYMELSSLRSEDTAVYYCARKYYYGNSRRSWYFDVWGQGTTVTVS VL: DIQMTQSPSSLSASVGDRVTITCRASESVDNYGISFMNWYQQKPGKAPKLLIYAASNRGSGVPSRFSGSGSGTDFTFTISSLQPEDIATYYCQQSKTVPRTFGQGTKLEIKR came out at 0.0015
